Test system: PC26
ASSAY SUMMARY: qHTS profiling for inhibitors of Plasmodium falciparum proliferation (AID 504749); further: nearly all actives have a fitted effect of over 60% in size; further: potency means the concentration at half of the fitted maximal effect
ASSAY SETUP: P. falciparum in erythrocytes, SYBR Green DNA, 72 h; series mostly up to 28.7 µM
Results filed as inconclusive are left out. Activity calls are given as the source filed them. The call rests on the fitted dose curve; in most records, active means well fitted inhibition curve with a large enough effect; inconclusive means small, poorly fitted or top-dose-only effect; inactive means flat fitted curve, though single readings scatter.
PROPERTY: Potency

> print(dat)
                                    compound          observed
 1  CC(C)NCC(O)c1ccc(NS(C)(=O)=O)cc1 (configuration not stated)          inactive
 2        OC(Cn1cncn1)(Cn1cncn1)c1ccc(F)cc1F          inactive
 3  COc1nc(N)nc2c1ncn2[C@@H]1O[C@H](CO)[C@@H](O)[C@@H]1O          inactive
 4  CC(=O)Oc1ccccc1C(=O)Nc1ncc([N+](=O)[O-])s1          inactive
 5  COc1cc([C@@H]2c3cc4c(cc3[C@H](O)[C@H]3COC(=O)[C@H]23)OCO4)cc(OC)c1OC  8.49 µM (active)
 6  CCC(C)(C)c1ccc(CC(C)CN2C[C@@H](C)O[C@@H](C)C2)cc1 (some centres not stated)          inactive
 7                   CC1=NN(c2ccccc2)C(=O)C1          inactive
 8  CC[C@H](C)C(=O)O[C@H]1C[C@@H](C)C=C2C=C[C@H](C)[C@H](CC[C@@H]3C[C@@H](O)CC(=O)O3)[C@H]21          inactive
 9  CC[C@H](NC(C)C)[C@H](O)c1ccc(O)c2[nH]c(=O)ccc12          inactive
10             Nc1nc(N)nc(-c2cc(Cl)ccc2Cl)n1          inactive
11         CNCC[C@H](Oc1cccc2ccccc12)c1cccs1  8.49 µM (active)
12     CNS(=O)(=O)Cc1ccc2[nH]cc(CCN(C)C)c2c1          inactive

----------
ASSAY SUMMARY: qHTS profiling for inhibitors of Plasmodium falciparum proliferation (AID 504749); further: nearly all actives have a fitted effect of over 60% in size;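 on activity, negative = inhibition: 0% = DMSO vehicle and full inhibition = artemisinin control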
ASSAY SETUP: P. falciparum in erythrocytes, SYBR Green DNA, 72 h; at 28.7 µM (top of the series); parasite line A
Method: NIH National Institute of Allergy and Infectious Diseases [NIAID] NIH Chemical Genomics Center [NCGC] […] Because mature erythrocytes lack DNA, only Plasmodium-derived DNA is detected. NCGC Assay Protocol Summary: The SYBR Green viability assay was adapted from a method described previously (Plouffe et al., 2008). […] The following morning, fluorescence intensity at 485(14) nm excitation and 535(25) nm emission wavelengths was measured on an EnVision (Perkin Elmer) plate reader. […]
Results filed as inconclusive are left out.
Measured activity, negative = inhibition of individual entries
PROPERTY: activity, negative = inhibition (%)

> print(dat)
                               query.smiles  observed
1                             O=S(=O)(O)CCS       8.7
2       COc1ncnc(NS(=O)(=O)c2ccc(N)cc2)c1OC     -18.9
3  CN1CCN(c2c(F)cc3c(=O)c(C(=O)O)cn4c3c2OCN4C)CC1      4.43
4  CC(=O)Oc1ccccc1C(=O)Nc1ncc([N+](=O)[O-])s1      1.42
5  COc1nc(N)nc2c1ncn2[C@@H]1O[C@H](CO)[C@@H](O)[C@@H]1O     -5.23

----------
System: CP335
ASSAY SUMMARY: qHTS profiling for inhibitors of Plasmodium falciparum proliferation (AID 504749); further: nearly all actives have a fitted effect of over 60% in size; further: potency means the concentration at half of the fitted maximal effect
ASSAY SETUP: P. falciparum in erythrocytes, SYBR Green DNA, 72 h; series mostly up to 28.7 µM
Records with an inconclusive call do not appear. Active and inactive are the calls of the source. Calls come from the whole dose curve; as a rule, active = well fitted inhibition curve with a large enough effect; inconclusive = small, poorly fitted or top-dose-only effect; inactive = flat fitted curve, though single readings scatter.
PROPERTY: Potency

> print(dat)
                               query.smiles          observed
1                      O=c1cc(O)c(Cl)c[nH]1          inactive
2  CCOC(=O)[C@H](CCc1ccccc1)N[C@H]1CS[C@H](c2cccs2)CN(CC(=O)O)C1=O          inactive
3  CC(C)(Sc1cc(C(C)(C)C)c(O)c(C(C)(C)C)c1)Sc1cc(C(C)(C)C)c(O)c(C(C)(C)C)c1  3.61 µM (active)

----------
Test system: CP260
ASSAY SUMMARY: qHTS profiling for inhibitors of Plasmodium falciparum proliferation (AID 504749); further: nearly all actives have a fitted effect of over 60% in size
ASSAY SETUP: P. falciparum in erythrocytes, SYBR Green DNA, 72 h; series mostly up to 28.7 µM
Records with an inconclusive call do not appear. Active and inactive are the calls of the source. Calls come from the whole dose curve; as a rule, active = well fitted inhibition curve with a large enough effect; inconclusive = small, poorly fitted or top-dose-only effect; inactive = flat fitted curve, though single readings scatter.
Outcome codes: yes (1) for active, no (0) for inactive

> print(dat)
                                    compound      cat
 1                            NC(=O)c1cccnc1   no (0)
 2                         Nc1[nH]c(=O)ncc1F   no (0)
 3                      O=c1cc(O)c(Cl)c[nH]1   no (0)
 4                        CCc1cc(C(N)=S)ccn1   no (0)
 5  CC(C)(Sc1cc(C(C)(C)C)c(O)c(C(C)(C)C)c1)Sc1cc(C(C)(C)C)c(O)c(C(C)(C)C)c1  yes (1)
 6  CCOC(=O)[C@H](CCc1ccccc1)N[C@H]1CS[C@H](c2cccs2)CN(CC(=O)O)C1=O   no (0)
 7  CCOCC(O)COc1ccc(NC(=O)CC[S+](C)C)cc1 (stereo unspecified)   no (0)
 8  CCOc1cc(N)c(Cl)cc1C(=O)NCC1CN(Cc2ccc(F)cc2)CCO1 (stereo unspecified)  yes (1)
 9       Cc1cccc(N(C)C(=S)Oc2ccc3ccccc3c2)c1   no (0)
10  CC[C@H](C)C(=O)O[C@H]1C[C@@H](C)C=C2C=C[C@H](C)[C@H](CC[C@@H]3C[C@@H](O)CC(=O)O3)[C@H]21   no (0)
11  COc1cc([C@@H]2c3cc4c(cc3[C@H](O)[C@H]3COC(=O)[C@H]23)OCO4)cc(OC)c1OC  yes (1)
12  Cc1oc(=O)oc1CN1CCN(c2cc3c(cc2F)c(=O)c(C(=O)O)c2n3C(C)S2)CC1 (stereo unspecified)  yes (1)
13  CN1CCN(c2c(F)cc3c(=O)c(C(=O)O)cn4c3c2OCN4C)CC1   no (0)
14  Nc1nc(N)c2nc(CNc3ccc(C(=O)NC(CCC(=O)O)C(=O)O)cc3)cnc2n1 (stereo unspecified)   no (0)
15       CCN(C)C(=O)Oc1cccc([C@H](C)N(C)C)c1   no (0)
16              NCCCC(O)(P(=O)(O)O)P(=O)(O)O   no (0)

----------
Tested on: AS120
ASSAY SUMMARY: qHTS profiling for inhibitors of Plasmodium falciparum proliferation (AID 504749); further: nearly all actives have a fitted effect of over 60% in size
ASSAY SETUP: P. falciparum in erythrocytes, SYBR Green DNA, 72 h; series mostly up to 28.7 µM
Records with an inconclusive call do not appear. Active and inactive are the calls of the source. The call rests on the fitted dose curve; in most records, active means well fitted inhibition curve with a large enough effect; inconclusive means small, poorly fitted or top-dose-only effect; inactive means flat fitted curve, though single readings scatter.
Possible outcomes: active, inactive

> print(dat)
                                    compound       cat
 1              NCCCC(O)(P(=O)(O)O)P(=O)(O)O  inactive
 2  CCOCC(O)COc1ccc(NC(=O)CC[S+](C)C)cc1 (stereo unspecified)  inactive
 3          Cc1noc(NS(=O)(=O)c2ccc(N)cc2)c1C  inactive
 4  COc1ccc2cc3[n+](cc2c1OC)CCc1cc2c(cc1-3)OCO2    active
 5  Cc1oc(=O)oc1CN1CCN(c2cc3c(cc2F)c(=O)c(C(=O)O)c2n3C(C)S2)CC1 (stereo unspecified)    active
 6  CC(C)(Sc1cc(C(C)(C)C)c(O)c(C(C)(C)C)c1)Sc1cc(C(C)(C)C)c(O)c(C(C)(C)C)c1  inactive
 7      CCOC(=O)c1ccc(OC(=O)CCCCCN=C(N)N)cc1  inactive
 8                  Cn1nnc2c(C(N)=O)ncn2c1=O  inactive
 9                            NC(=O)c1cccnc1  inactive
10  CN(C)CCc1c[nH]c2ccc(CS(=O)(=O)N3CCCC3)cc12  inactive
11  COc1ccc(C(=O)CC(=O)c2ccc(C(C)(C)C)cc2)cc1  inactive
12  COc1nc(N)nc2c1ncn2[C@@H]1O[C@H](CO)[C@@H](O)[C@@H]1O  inactive
13                 CNNCc1ccc(C(=O)NC(C)C)cc1  inactive
14  CNC(=O)c1cc(Oc2ccc(NC(=O)Nc3ccc(Cl)c(C(F)(F)F)c3)cc2)ccn1    active
15  CN(C)c1ccc(C(=C2C=CC(=[N+](C)C)C=C2)c2ccc(N(C)C)cc2)cc1    active
16                  O=NN(CCCl)C(=O)NC1CCCCC1  inactive
17  COc1cc([C@@H]2c3cc4c(cc3[C@H](O)[C@H]3COC(=O)[C@H]23)OCO4)cc(OC)c1OC    active
18  CC(C)(C#N)c1cc(Cn2cncn2)cc(C(C)(C)C#N)c1  inactive
19     COc1cc(NS(=O)(=O)c2ccc(N)cc2)nc(OC)n1  inactive
20           NC(=O)N1c2ccccc2CC(=O)c2ccccc21  inactive
21     CNS(=O)(=O)Cc1ccc2[nH]cc(CCN(C)C)c2c1  inactive
22  COc1c(N2CCNC(C)C2)c(F)cc2c(=O)c(C(=O)O)cn(C3CC3)c12 (stereo unspecified)  inactive
23  CN1CCN(c2c(F)cc3c(=O)c(C(=O)O)cn(CCF)c3c2F)CC1  inactive
24                    CC1=CC(=O)c2ccccc2C1=O  inactive
25                   NC(N)=NC(N)=NCCc1ccccc1  inactive
26       COc1ncnc(NS(=O)(=O)c2ccc(N)cc2)c1OC  inactive
